Where do these numbers come from? They come from patent US10927097B2.

- System: primary hepatocytes isolated from rats
- ASSAY PROTOCOL: Hepatocyte protective effect against doxorubicin treatment (cell viability, WST-1)
- Format: cell-based
- CONDITION: primary rat hepatocytes pretreated with compound for 30 min, viability by WST-1 after 24-48 hours
EXPERIMENTAL READOUT: pEC50
Please keep in mind that pEC50 is minus log10 of the molar concentration; only the number is needed.

INSERT INTO assay_data (structure_smiles, experimental_system, readout_number) VALUES
  ('O=S1(=O)CCN(CCc2cc3cc(Cl)cc(NC4CCOCC4)c3[nH]2)CC1', 'primary hepatocytes isolated from rats', 6.62);

We next turn to a different molecule, shown below.
Query: What value of pEC50 on primary hepatocytes isolated from rats does "CS(=O)(=O)N1CCC(Nc2cc(Cl)cc3cc(CCN4CCn5c(nnc5C(F)(F)F)C4)[nH]c23)CC1" have?
Response: 6.22
